Experiment: Pharmacokinetic profiling in mice (plasma, LC-MS/MS)
Conditions: CD1, mouse, in vivo, po, 20 mg/kg
Method: EDTA was added to plasma in order to prevent blood from coagulation. The compound concentrations in the particular plasma samples were determined by LC-MS/MS, as follows: Samples and blanks were prepared by adding 2.5 μL blank DMSO and 80 μL of ice-cold acetonitrile containing the internal standard (Griseofulvin, 1 μM) to 20 μl plasma followed by centrifugation at 13000 rpm (4° C.) for 10 min. 65 μL of the supernatant were diluted with 65 μL of LC-MS grade water. […]
METRIC NAME: bioavailability
Give your result as the value with the unit written after it.

Query (compound): "C=CC(=O)Nc1ccc2[nH]c(=O)n(C3CCN(Cc4ccc(-c5nc6cc[nH]c(=O)c6cc5-c5ccccc5)cc4)CC3)c2c1" ; field requested: bioavailability
10.8%

* * *

target: wild-type Akt1 (Homo sapiens (Human), UniProt P31749)
Sequence (P31749 whole entry): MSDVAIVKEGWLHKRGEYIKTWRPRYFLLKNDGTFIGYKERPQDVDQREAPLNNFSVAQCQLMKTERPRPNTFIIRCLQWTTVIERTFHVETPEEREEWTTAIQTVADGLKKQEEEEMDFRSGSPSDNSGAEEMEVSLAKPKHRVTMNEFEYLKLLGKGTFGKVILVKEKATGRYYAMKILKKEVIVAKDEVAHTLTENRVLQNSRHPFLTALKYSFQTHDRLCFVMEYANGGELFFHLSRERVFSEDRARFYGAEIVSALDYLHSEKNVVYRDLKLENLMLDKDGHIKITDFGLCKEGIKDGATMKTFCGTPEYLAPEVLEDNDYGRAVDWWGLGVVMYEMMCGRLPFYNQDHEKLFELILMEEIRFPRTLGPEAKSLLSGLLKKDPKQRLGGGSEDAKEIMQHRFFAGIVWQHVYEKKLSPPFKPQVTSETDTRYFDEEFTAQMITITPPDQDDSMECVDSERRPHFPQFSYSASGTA
METRIC NAME: IC50 (nM)
Answers are plain numbers, in nM.

Please report the recorded IC50 for "C=CC(=O)Nc1ccc(C(=O)NC2CCN(Cc3ccc(-c4nc5cc[nH]c(=O)c5cc4-c4ccccc4)cc3)CC2)s1" .
8.1

* * *

biological target: Akt1_E17K (Homo sapiens (Human), UniProt P31749, E17K); assay: Activity-based assay, ECHO520 dilution series; settings: mutant Akt1_E17K
Sequence (P31749 whole entry E17K): as the sequence (P31749 whole entry) above, with E17K counted along it
METRIC NAME: pIC50
Numbers only, as −log10 of the molar value.

Go through the list and state pIC50 for each entry.
1. C=CC(=O)Nc1ccc(C(=O)NC2CCN(Cc3ccc(-c4nc5cc[nH]c(=O)c5cc4-c4ccccc4)cc3)CC2)s1 [Compound 48]
2. C=CC(=O)Nc1ccc(C(=O)NC2CCN(Cc3ccc(-c4nc5cc[nH]c(=O)c5cc4-c4ccccc4)cc3)CC2)c(F)c1 [Compound 47]

[6.40, 5.54]

* * *

target: activated full-length wtAkt1 (Homo sapiens (Human)); experiment: Activity-based (HTRF) assay, manual dilution series
METRIC NAME: IC50
Reply with a number, then the unit it belongs to.

• CCC(=O)Nc1cccc(-c2cn(C3CCN(Cc4ccc(-c5nc6ccccn6c5-c5ccccc5)cc4)CC3)nn2)c1 [Compound 2b] = 992 nM

Consider the additional compound presented here.
Which IC50 value belongs to C=CC(=O)Nc1cccc(-c2cn(C3CCN(Cc4ccc(-c5nc6ccccn6c5-c5ccccc5)cc4)CC3)nn2)c1 [Compound 2a] ?
372 nM

* * *

target: fluorescently labeled full-length Akt1 (Homo sapiens (Human), UniProt P31749, C296S/C310S/C344S/E49C); assay: iFLiK binding analysis; details: fluorophore-labeled Akt1 200 nM; n.r. = no response up to 100 μM
Sequence (P31749 whole entry E49C/C296S/C310S/C344S): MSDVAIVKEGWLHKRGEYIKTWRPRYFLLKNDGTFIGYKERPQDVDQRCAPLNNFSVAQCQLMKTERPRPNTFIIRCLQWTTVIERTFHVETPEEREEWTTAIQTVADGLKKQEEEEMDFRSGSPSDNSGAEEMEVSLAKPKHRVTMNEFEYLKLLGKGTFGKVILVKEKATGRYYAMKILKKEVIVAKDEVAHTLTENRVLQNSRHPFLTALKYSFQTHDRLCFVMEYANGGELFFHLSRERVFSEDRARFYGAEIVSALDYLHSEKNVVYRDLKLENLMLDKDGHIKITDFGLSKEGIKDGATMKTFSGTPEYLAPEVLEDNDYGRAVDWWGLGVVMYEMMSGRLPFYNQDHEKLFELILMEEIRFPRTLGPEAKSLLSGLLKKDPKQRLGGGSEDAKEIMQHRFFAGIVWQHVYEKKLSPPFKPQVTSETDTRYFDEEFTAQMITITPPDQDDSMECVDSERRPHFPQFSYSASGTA
METRIC NAME: Kd

The cases that follow already have their Kd on record.
- CCC(=O)Nc1ccc2[nH]c(=O)n(C3CCN(Cc4ccc(-c5nc6cc[nH]c(=O)c6cc5-c5ccccc5)cc4)CC3)c2c1 [Compound 1b]: 62 nM
- CCC(=O)Nc1cccc(-c2cn(C3CCN(Cc4ccc(-c5nc6ccccn6c5-c5ccccc5)cc4)CC3)nn2)c1 [Compound 2b]: 797 nM
- C=CC(=O)Nc1cccc(-c2cn(C3CCN(Cc4ccc(-c5nc6ccccn6c5-c5ccccc5)cc4)CC3)nn2)c1 [Compound 2a]: 795 nM

--- query ---
Need Kd, item CCC(=O)Nc1cccc(C(=O)NC2CCN(Cc3ccc(-c4nc5cc[nH]c(=O)c5cc4-c4ccccc4)cc3)CC2)c1 [Compound 27]
79 nM

* * *

molecular target: activated full-length wtAkt1 (Homo sapiens (Human), UniProt P31749); assay: Activity-based (HTRF) assay, manual dilution series; details: activated full-length wtAkt1, 120 pM; manual dilution series
Sequence (P31749 whole entry): as the sequence (P31749 whole entry) above
Could you please report measured IC50 for the items listed next?
Give bare numbers, in nM.

Kindly give each listed record's IC50.
1. CCC(=O)Nc1cccc(C(=O)NC2CCN(Cc3ccc(-c4nc5cc[nH]c(=O)c5cc4-c4ccccc4)cc3)CC2)c1
2. CCC(=O)Nc1ccc2[nH]c(=O)n(C3CCN(Cc4ccc(-c5nc6cc[nH]c(=O)c6cc5-c5ccccc5)cc4)CC3)c2c1
3. C=CC(=O)Nc1cccc(-c2cn(C3CCN(Cc4ccc(-c5nc6ccccn6c5-c5ccccc5)cc4)CC3)nn2)c1

18.2
7.5
372
